# target_or_test_system: SARS-CoV-2 S on pseudovirions (Wuhan Hu-1 / IL1/2020, last 18 amino acids removed) (SARS-CoV-2, UniProt P0DTC2 14-1273)
# assay_comment: cell-based or functional assay
observation_type: Mean IC50, pSV neutralization

Please report the recorded Mean IC50, pSV neutralization for COV_1144 (antibody, V domains shown, human IgG1) VH: EVQLVESGGGLVQPGGSLRLSCAASGFTFRSFWMSWVRQAPGKGLEWVANIKEDASEKHYVDPVKGRFTISRDNAKNSLYLQLNSLRAEDMAVYYCARVGRGYCTNGLCYTAFEYWGQGTLVTVSS VL: DIQMTQSPSSLSASVGDRVTITCRTSQSISNYLNWYQQKPGKAPKLLIYAASSLQSGVPSRFSGSGSGTDFTLTISSLQPEDFATYYCQQSYSTAWTFGQGTKVEIRR .
≥ 25 µg/ml

Please report the recorded Mean IC50, pSV neutralization for COV_2108 (antibody, V domains shown) VH: EVQLVESGGGVVQPGRSLRLSCAASGFTFSNYAFHWVRQAPGKGLEWVAVISYDGSIKYSADSVKGRFTISRDNSKNTLYLQMNSLRAEDTAVYYCARDSGDYVDYFDYWGQGTLVTVSS VL: DIQMTQSPSSLSASVGDRVTITCRASQSISSYLNWYQQKPGKAPKLLIHTTSSLQSGVPSRFSGSGSGTGFTLTISSLQPEDFATYYCQQSYSSPPLTFGGGTKVEIK .
13.5 µg/ml

Please report the recorded Mean IC50, pSV neutralization for COV_3005 (antibody, V domains shown) VH: EVQLLGFGGGFIRPGGSLRLSCAASGFSFSSYSMSWVRQGPGNGLEWVAGISDRGNSKTYADSVKGRFTVSRDNSKDMLYLELTNLRVEDSATYFCARDWSQSSSSSSPDYWGPGILVTVSS VL: DIQMTQSPSAMSAFVGDRVTITCRASLGVNNYLAWYQQRPGKVPRRLIYAASSLQSGVPSRFRGSGSGTQFTLTITGLQPEDSGTYYCLQHGRYPPVFGPGTRVELI .
≥ 25 µg/ml

Please report the recorded Mean IC50, pSV neutralization for COV_2151 (antibody, V domains shown, human IgG1) VH: QVQLQESGPRLVKPSETLSLTCTVSGGSISGSNYFWGWIRQPPGKGLEWIGTIYYGGSTYYNPSLKSRVTISVDTSENQFSLKLSSVTAADTAVYYCANLAWLRGYFDYWGQGTLVTVSS VL: NFMLTQPHSVSESPGKTVTISCTRSSGSIASNYVQWYQQRPGSAPTTVIYEDNQRPSGVPDRFSGSIDSSSNSVSLTISGLKTEDEADYYCQSYDSSNWVFGGGTKLTVL .
0.12 µg/ml

Please report the recorded Mean IC50, pSV neutralization for COV_2028 (antibody, V domains shown, human IgG1) VH: QVQLQESGPGLVKPSGTLSLTCVVSGGSISSSNWWSWVRQPPGKGLEWIGEIYHSGSTNYNPSLKSRVTISVDKSKNQFSLRLTSVTAADTAVYYCARGWNYDYWGQGTLVTVSS VL: QSALTQPASVSGSPGQSITIACTGTSSDVGSYNLVSWYQQHPGKAPKLMIYEVSKRPSGLSNRFSGSKSGNTASLTISGLQAEDEADYYCYSYAGSSTWVFGGGTKLTVL .
≥ 25 µg/ml

Please report the recorded Mean IC50, pSV neutralization for COV_3033 (antibody, V domains shown) VH: EVQMVESGGGFVQPGQSPRLSCLVSGLNFADYAFCWVRQAPGKGPEWIGFISSKLHGGTTHYAASVEGRFIISRDDSKNVVYLQMDNLKAEDSAVYYCTRDSYGYFPEYGFGVWGQGTLVTVSS VL: EVVLTQTPLSLSVTPGQPASISCRSSQSLVHSDGRTYLYWFLQKPGQPPQPLIYDISSRFSGVPYRFTGSGSGTYFTLRISRVEADDVGVYYCMHSIQLPRAFGQGTKVEIK .
≥ 25 µg/ml

Please report the recorded Mean IC50, pSV neutralization for COV_2093 (antibody, V domains shown, human IgG1) VH: EVQLVESGGGLVQPGGSLRLSCAASGFMFNRFWMSWVRQAPGKGLEWVTNIKQDGSEKNYVDSVKGRFTISRDNAKNSLYLQMNSLRAEDTAVYYCARDGLYYDFRSPSPFYGMDVWGQGTTVTVSS VL: DIQMTQSPSSLSASVGDRVTITCRASQSISSYLNWYQHKSGKAPKLLIYAASRLQSGVPSRFSGSGSGTDFTLTIVSLQPEDLATYYCQQSYSTPRTFGGGTKVEIKR .
≥ 25 µg/ml

Please report the recorded Mean IC50, pSV neutralization for COV_2048 (antibody, V domains shown, human IgG1) VH: QVQLQESGPGLVKPSETLSLTCTVSGGSISNTSYYWGWIRQPPGKGLEWIGSIYRSGSTYYNPSLKSRVTISIDTSKNQFTLKLSSVTAADTAVYYCARDYYGDYSAKPMEYWGQGTLVTVSS VL: QSALTQPRSVSGSPGQSVTISCTGTSSDVGGYNYVSWYQQHPGKAPKLLIYDVSKRPSGVPDRFSGSKSGNTASLTISGLQAEDEADYYCCSYAGSYVVFGGGAKLTVLG .
20.3 µg/ml

Please report the recorded Mean IC50, pSV neutralization for COV_1131 (antibody, V domains shown, human IgG1) VH: QVQLQESGPGLVKPSETLSLTCSVSGGSISSYYWSWIRQPPGKGLEWIGYISYSGSTNYNPSLKSRVTISVDTSKNQFSLKLSSVTAADTAVYYCARLGFGGIYPSLYDAFDIWGQGTMVTVSS VL: DIQMTQSPSSLSASVGDRVTITCRASQTISSYLNWYQQKPGKAPNLLIYDASSLQRGVPSRFSGSGSGTDFTLTISSLQPEDFATYYCQQSYSTPRTFGQGTKVEIKR .
≥ 25 µg/ml

Please report the recorded Mean IC50, pSV neutralization for COV_3028 (antibody, V domains shown) VH: EVQLVESGGGLVQPGQSLRLSCTTSGFNFGDNSMSWVRQAPGKGLEWVGFISPKSHGGTTEYAASVKGRFSISRDDSTSNAYLQMTSLKTEDTAIYYCIRDSYGHFPEYGFDIWGQGTMVTVSS VL: DVVLTQTPLFLSVTPGQPASISCKSSGSLIHTDGKTYFYWFLQKAGQPPQLLIYEASNRFSGVPDRFSGSGSGTDFTLHISRVEAEDVGIYYCMHSIQLPRTFGQGTKVELT .
≥ 25 µg/ml
